- testedTarget: NADPH oxidase 5 (Homo sapiens)
- assaySummary: compounds shifting NOX5 Amplex Red fluorescence – cell-based, HEK293-NOX5, NOX inhibitor project, primary screen (AID 1161)
- conditionDetails: HEK293-NOX5, ionomycin, 45 min, higher = more signal
Returns one of 1.0 or 0.0; 1.0 when z-score is >= 0.7.

{"molecule": "CN(C)CCCC[C@@H]1NC(=O)[C@@H]2C[C@H](C(=O)NCCCCCCN)[C@H](c3ccc(O)cc3)N2C1=O", "discreteLabel": 1.0}
{"molecule": "Cc1ccc(S[C@]2(C(=O)NCC(F)(F)F)CC(=O)N(C3Cc4ccccc4C3)[C@@H]2c2ccc(CO)cc2I)cc1", "discreteLabel": 1.0}
{"molecule": "COC(=O)[C@@]1(Cc2ccc(F)cc2)[C@H]2c3cc(C(=O)N(C)C)n(Cc4ccccn4)c3C[C@H]2CN1C(=O)c1ccccc1", "discreteLabel": 0.0}
{"molecule": "CCCNC(=O)[C@@]1(C)c2ccccc2C(=O)N(Cc2ccc(OC(F)(F)F)cc2)[C@H]1c1ccc(CO)cc1", "discreteLabel": 0.0}
{"molecule": "CCCNC(=O)[C@@]1(C)c2ccccc2C(=O)N(Cc2cc(F)cc(C(F)(F)F)c2)[C@H]1c1ccc(CO)cc1", "discreteLabel": 0.0}
{"molecule": "COC(=O)[C@@]1(Cc2ccc(F)cc2)[C@H]2c3cc(C(=O)N(C)C)n(CCCNc4ccc(C(F)(F)F)cc4Cl)c3C[C@H]2CN1C(=O)c1ccccc1", "discreteLabel": 1.0}
{"molecule": "O=C(NCc1ccccc1)[C@@H]1c2ccccc2C(=O)N(C2CCCCC2)[C@H]1c1ccc(CO)cc1", "discreteLabel": 1.0}
{"molecule": "C[C@]1(C(=O)NCC(F)(F)F)c2ccccc2C(=O)N(Cc2cc(F)cc(C(F)(F)F)c2)[C@H]1c1ccc(CO)cc1", "discreteLabel": 0.0}
{"molecule": "CCOC1=C2C(c3ccc(C)cc3)N(S(=O)(=O)c3ccc(C)cc3)CC2n2c(=O)n(-c3ccccc3)c(=O)n2C1 (stereo not given)", "discreteLabel": 0.0}
{"molecule": "[N-]=[N+]=NCc1ccccc1[C@@H]1OC(c2ccc(OCCCO)cc2)=N[C@]1(Cc1ccccc1)C(=O)O", "discreteLabel": 1.0}
{"molecule": "O=C1O[C@H](c2ccccc2)[C@H](c2ccccc2)N2[C@H]1[C@@H](C(=O)Nc1nc3ccccc3s1)[C@]1(C(=O)Nc3ccc(C#CC4=CCCCC4)cc31)[C@H]2c1ccc(OCCO)cc1", "discreteLabel": 0.0}
{"molecule": "COc1ccc(CCNC(=O)[C@@]2(C)c3ccccc3C(=O)N(Cc3ccccc3)[C@H]2c2ccc(CO)cc2)cc1", "discreteLabel": 0.0}
{"molecule": "Cn1c2c(c3ccccc31)C(=O)C1NC2C=CC1(C)C(=O)OCc1ccccc1 (stereo not given)", "discreteLabel": 1.0}
{"molecule": "O=C1c2ccccc2[C@](Cc2ccccc2I)(C(=O)O)[C@H](c2ccc(CO)cc2)N1Cc1ccccc1C(F)(F)F", "discreteLabel": 0.0}
{"molecule": "O=C(NCC(O)CO)[C@@]1(Cc2ccccc2)N=C(c2ccc(OCCCO)cc2)O[C@H]1c1ccccc1 (stereo not given in full)", "discreteLabel": 1.0}
